B1: C9orf25 (parent)
chain: LARKGSLKNGSMGSPVNQQPKKNN

- Variants of: B1
- Test Method Notes: protein stability index of a GFP-peptide fusion (GPS, HEK-293T) (PSI 1-6); higher = more stable;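 further: lentivirally expressed fusions sorted by FACS into six bins by GFP to DsRed ratio, PSI derived from sequencing read proportions per bin multiplied by bin number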
- Condition Context: c terminus: a fixed tail appended
Entries annotated with measured protein stability index
No unit in the answer, please; the number alone is enough.

Known protein stability index results, listed for orientation:
Item Sequence	protein stability index
LARKGSLKNGSVGSPVNQQPKKNN [M12V]	4.98
TARKGSLKNGSMGSPVNQQPKKNN [L1T]	4.31
LARKGSLKNGSMGSPVNQQPKENN [K22E]	5.05
LARRGSLKNGSMGSPVNQQPKKNN [K4R]	3.74
LARKGSLKHGSMGSPVNQQPKKNN [N9H]	4.63

Query string: What value of measured protein stability index is listed for LARYGSLKNGSMGSPVNQQPKKNN [K4Y] ?
Result string: 4.13

Query string: Which measured protein stability index value corresponds to LARKGSLKRGSMGSPVNQQPKKNN [N9R] ?
Result string: 4.43

Query string: Return reported protein stability index; argument: LARKGSLKNGSMGSPVNQIPKKNN [Q19I]
Result string: 4.85

Query string: What value of protein stability index has been reported for the following variant? LARKGSLKNGSMGSPVNQQPKVNN [K22V]
Result string: 3.17

Query string: Find the recorded protein stability index belonging to LARKSSLKNGSMGSPVNQQPKKNN [G5S] and report it.
Result string: 4.8

Query string: Quick one: protein stability index of LARKGSLKNGSMGSPVNQQPKKPN [N23P] ?
Result string: 5.24

Query string: Entry LARKGSLKNGSMGSPVNQQFKKNN [P20F] has what protein stability index?
Result string: 4.03

Query string: Field request: protein stability index | item: LARKGSLKNGSMGSPKNQQPKKNN [V16K]
Result string: 4.14

Query string: State the recorded protein stability index for this entry: LARKGSLKNGSMGSPVNQQAKKNN [P20A]
Result string: 4.54

Query string: I have this variant here, LARKGSLKNGSMGSSVNQQPKKNN [P15S] , and I need its recorded protein stability index.
Result string: 4.26

Query string: What value of protein stability index has been reported for the following variant? LARKGSLKNGSMGSPVAQQPKKNN [N17A]
Result string: 4.25
